src = patent US20240150440A1

Please provide measured pEC50 for the entries that follow.
Target Or System: T1, SARS-CoV-2 Beta Variant RBD (SARS-CoV-2 Beta variant)
T1 construct: domain: RBD; coated on ELISA plates
Measurement Protocol: ELISA, RBD coated
Please report pEC50 as the negative decimal logarithm of the molar concentration, giving only the number.

Give pEC50 for the following binder: PP1099 MBP-5HVZ-PAPA-RN-12-H6 (VHH, Form: Dimer) VHH: QVQLVESGGGLVQPGGSLRLSCAASGSSFEGNAVHWFRQAPGKNREFVATITTSTSYYYADSVKGRFTISRDNAKNTVYLQMNSLKPEDTAVYYCAARLKDRGPQSEYDYWGQGTQVTVSS
6.71

Please look at this binder and report its pEC50: PP1096 MBP-5HVZ-PAPA-RN-3-H6 (VHH) VHH: QVQLVESGGGLVQPGGSLRLSCAASGFEFTYRAVHWFRQAPGKGREWVAGVVSGGSTYYADSVKGRFTISRDNAKNTVYLQMNSLKPEDTAVYYCNAGPQAEEDTYDYWGQGTQVTVSS
7.20

Annotate the binder PP913 MBP-5HVZ-S3a-C5-H6 (VHH, Form: Dimer) VHH: QVQLVESGGGLVQPGGSLRLSCAASGSIKNTNAMHWFRQAPGKDREWVAGITSGGNSNYGDSVKGRFTISRDNAKNTVYLQMNSLKPEDTAVYYCAAFGYRYDQDYTYDYWGQGTQVTVSS with its measured pEC50.
6.95

Identify pEC50 associated with the binder PP1103 MBP-5HVZ-PAPA-RN-18-H6 (VHH, Form: Dimer) VHH: QVQLVESGGGLVQPGGSLRLSCAASGYYFQIVAMHWYRQAPGKEREGVAGITSTGSTYYGDSVKGRFTISRDNAKNTVYLQMNSLKPEDTAVYYCNAVSTDAQGAAEYWGQGTQVTVSS
6.64
